Numbers sourced from paper PMC10143848.

# ASSAY_REMARKS: in vitro
# Format: cell-based
# ASSAY_CONDITIONS: human (HEp-2, A549, HCLE, Calu-3); cat (CRFK)
MEASURED_PARAMETER: CC50 at 24 h

Qu. Form field: reported CC50 at 24 h of Oc1cc(O)c2cc(O)c(-c3ccc(O)c(O)c3)[o+]c2c1 [A18, Cyanidin chloride]
Ans. > 200 µg/mL
